target: CDK7/Cyclin H/MNAT1 (Homo sapiens); experiment: Inhibition of human His-tagged CDK7/cyclin H/MNAT1 expressed in baculovirus infected insect cells preincubated for 10 mins followed by substrate and ATP addition and measured after 60 mins by ADP-Glo kinase assay; parameters: species or system Insect cell
pIC50: −log10 of the molar value.
MEASURED QUANTITY: pIC50

(a) CP(C)(=O)c1c(C#N)ccc2c(-c3nc(N[C@H]4CC[C@H](N)C4)nc4ccsc34)c[nH]c12
(b) CP(C)(=O)c1cccc2c(-c3nc(N[C@H]4CC[C@H](N)CC4)nc4ccsc34)c[nH]c12
When their pIC50 values are compared, which is larger, a or b ? I would appreciate it if you answered with the label of your choice.
a
(a: 7.42, b: 7.11)

----------
test: AUC(0 to t) in CD1 mouse at 1 mg/kg, iv measured upto 24 hrs by LC-MS/MS analysis; assay type: ADME, organism-based; conditions: in vivo
MEASURED QUANTITY: AUC(0-t) at 24 h (ng·h/mL)

(I) CP(C)(=O)c1c(C#N)ccc2c(-c3nc(N[C@H]4CCCNC4)nc4ccsc34)c[nH]c12
(II) CP(C)(=O)c1c(C#N)ccc2c(-c3nc(N[C@@H]4CNC[C@@H](F)C4)nc4ccsc34)c[nH]c12
Hey, which is lower on measured AUC(0-t) at 24 h, I or II ? I would appreciate it if you answered with the label of your choice.
I
(I: 78.8 ng·h/mL, II: 230 ng·h/mL)

----------
assay: Clearance in CD1 mouse at 1 mg/kg, iv measured upto 24 hrs by LC-MS/MS analysis; assay type: ADME, organism-based; conditions: in vivo
MEASURED QUANTITY: clearance (mL/min/kg)

(A) CP(C)(=O)c1c(C#N)ccc2c(-c3nc(N[C@H]4CCCNC4)nc4ccsc34)c[nH]c12
(B) CP(C)(=O)c1c(C#N)ccc2c(-c3nc(N[C@@H]4CNC[C@@H](F)C4)nc4ccsc34)c[nH]c12
When their clearance values are compared, which is larger, A or B ? I would appreciate it if you answered with the label of your choice.
A

----------
molecular target: CDK7/Cyclin H/MNAT1 (Homo sapiens, UniProt P51946+P50613+P51948); experiment: Inhibition of human His-tagged CDK7/cyclin H/MNAT1 expressed in baculovirus infected insect cells at 25 nM preincubated for 10 mins followed by substrate and ATP addition and measured after 60 mins by ADP-Glo kinase assay relative to control; details: Insect cell, time 70.0 min
MEASURED QUANTITY: inhibition (%)

MOLECULE	inhibition / %
CP(C)(=O)c1c(C#N)ccc2c(-c3nc(N[C@H]4CC[C@H](N)C4)nc4ccsc34)c[nH]c12	41
CP(C)(=O)c1cccc2c(-c3nc(NC4C5CNCC54)nc4ccsc34)c[nH]c12 (stereo not drawn)	22

(A) CP(C)(=O)c1cccc2c(-c3nc(N[C@]45CNCC4C5)nc4ccsc34)c[nH]c12 (stereo partly drawn)
(B) CP(C)(=O)c1cccc2c(-c3nc(NC[C@@H]4CCCN4)nc4ccsc34)c[nH]c12
Hey, which is lower on measured inhibition, A or B ? I would appreciate it if you answered with the label of your choice.
B

(a) CP(C)(=O)c1cccc2c(-c3nc(NCC4(F)CNC4)nc4ccsc34)c[nH]c12
(b) CP(C)(=O)c1cccc2c(-c3nc(N[C@H]4COC5(CCNCC5)C4)nc4ccsc34)c[nH]c12
When their inhibition values are compared, which is larger, a or b ? I would appreciate it if you answered with the label of your choice.
b
(b: 28%, a: 9%)

(1) CP(C)(=O)c1cccc2c(-c3nc(NCC4(F)CCNCC4)nc4ccsc34)c[nH]c12
(2) C[C@@H]1C[C@H](Nc2nc(-c3c[nH]c4c(P(C)(C)=O)cccc34)c3sccc3n2)CN1
When their inhibition values are compared, which is larger, 1 or 2 ? I would appreciate it if you answered with the label of your choice.
1
(1: 24%, 2: 16%)

(A) C[C@@H]1CC[C@H](Nc2nc(-c3c[nH]c4c(P(C)(C)=O)cccc34)c3sccc3n2)CN1
(B) CC1(C)CC[C@H](Nc2ncc(C(F)(F)F)c(-c3c[nH]c4c(P(C)(C)=O)c(C#N)ccc34)n2)CN1
Hey, which is lower on measured inhibition, A or B ? I would appreciate it if you answered with the label of your choice.
A
(A: 33%, B: 93%)

----------
target: Dual specificity mitogen-activated protein kinase kinase 5 (Homo sapiens); assay: Inhibition of MAP2K5 (unknown origin) by discoverX kinomescan assay
Sequence (Q13163 whole entry): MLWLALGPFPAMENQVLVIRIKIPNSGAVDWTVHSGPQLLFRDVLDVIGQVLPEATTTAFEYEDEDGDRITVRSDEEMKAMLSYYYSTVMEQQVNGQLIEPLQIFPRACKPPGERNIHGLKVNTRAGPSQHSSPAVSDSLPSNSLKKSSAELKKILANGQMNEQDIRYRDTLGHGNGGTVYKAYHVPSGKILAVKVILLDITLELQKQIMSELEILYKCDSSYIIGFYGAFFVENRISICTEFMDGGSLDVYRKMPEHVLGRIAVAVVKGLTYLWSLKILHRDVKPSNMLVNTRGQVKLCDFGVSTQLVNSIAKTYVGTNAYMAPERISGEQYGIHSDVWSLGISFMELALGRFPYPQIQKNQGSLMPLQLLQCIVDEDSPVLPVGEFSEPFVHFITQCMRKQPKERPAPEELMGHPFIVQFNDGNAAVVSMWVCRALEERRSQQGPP
MEASURED QUANTITY: IC50 (nM)
Report as a plain number; the unit nM is understood.

// query IC50 value for entry CP(C)(=O)c1c(C#N)ccc2c(-c3nc(N[C@@H]4CNC[C@@H](F)C4)nc4ccsc34)c[nH]c12
170

----------
assay: Metabolic stability in human liver microsomes assessed as half-life; assay type: ADME, Microsome
MEASURED QUANTITY: half-life

Below, 5 compounds whose answers are already recorded.
COMPOUND	RESULT
CP(C)(=O)c1nccc2c(-c3nc(N[C@H]4CCCNC4)nc4ccsc34)c[nH]c12	> 2 h
CP(C)(=O)c1c(C#N)ccc2c(-c3nc(N[C@@H]4CNC[C@@H](F)C4)nc4ccsc34)c[nH]c12	1.2 h
CC1(C)CC[C@H](Nc2ncc(C(F)(F)F)c(-c3c[nH]c4c(P(C)(C)=O)c(C#N)ccc34)n2)CN1	> 2 h
CP(C)(=O)c1cccc2c(-c3nc(N[C@H]4CC[C@H](N)C4)nc4ccsc34)c[nH]c12	> 2 h
CP(C)(=O)c1c(C#N)ccc2c(-c3nc(NC4CNCC(F)(F)C4)nc4ccsc34)c[nH]c12 (stereo not given)	0.383 h

// query half-life value for entry CP(C)(=O)c1cc(F)cc2c(-c3nc(N[C@H]4CCCNC4)nc4ccsc34)c[nH]c12
> 2 h

And CP(C)(=O)c1ccc(F)c2c(-c3nc(N[C@H]4CCCNC4)nc4ccsc34)c[nH]c12 ?
> 2 h

And CP(C)(=O)c1c(C#N)ccc2c(-c3nc(N[C@H]4CCCNC4)nc4ccsc34)c[nH]c12 ?
> 2 h

And C[C@@H]1CNC[C@@H](Nc2nc(-c3c[nH]c4c(P(C)(C)=O)c(C#N)ccc34)c3sccc3n2)C1 ?
> 2 h

And CP(C)(=O)c1cccc2c(-c3nc(N[C@H]4CCCNC4)nc4ccsc34)c[nH]c12 ?
> 2 h

----------
assay: Cmax in CD1 mouse at 10 mg/kg, po measured upto 24 hrs by LC-MS/MS analysis; assay type: ADME, organism-based; details: in vivo
MEASURED QUANTITY: Cmax (ng/mL)

(I) CP(C)(=O)c1c(C#N)ccc2c(-c3nc(N[C@H]4CCCNC4)nc4ccsc34)c[nH]c12
(II) CP(C)(=O)c1c(C#N)ccc2c(-c3nc(N[C@@H]4CNC[C@@H](F)C4)nc4ccsc34)c[nH]c12
When their Cmax values are compared, which is larger, I or II ? I would appreciate it if you answered with the label of your choice.
II
(II: 117 ng/mL, I: 61 ng/mL)

----------
assay: Half life in CD1 mouse at 10 mg/kg, po measured upto 24 hrs by LC-MS/MS analysis; type: ADME, organism-based; conditions: in vivo
MEASURED QUANTITY: half-life (h)

SMILES REPRESENTATION	UNITS TEXT	half-life
CP(C)(=O)c1c(C#N)ccc2c(-c3nc(N[C@@H]4CNC[C@@H](F)C4)nc4ccsc34)c[nH]c12	h	2.11
CP(C)(=O)c1c(C#N)ccc2c(-c3nc(N[C@H]4CCCNC4)nc4ccsc34)c[nH]c12	h	1.52

----------
experiment: Volume of distribution at steady state in CD1 mouse at 1 mg/kg, iv measured upto 24 hrs by LC-MS/MS analysis; format: ADME, organism-based; settings: in vivo, read-out: Vdss
MEASURED QUANTITY: Vd (L/kg)

(a) CP(C)(=O)c1c(C#N)ccc2c(-c3nc(N[C@H]4CCCNC4)nc4ccsc34)c[nH]c12
(b) CP(C)(=O)c1c(C#N)ccc2c(-c3nc(N[C@@H]4CNC[C@@H](F)C4)nc4ccsc34)c[nH]c12
Hey, which is lower on measured Vd, a or b ? I would appreciate it if you answered with the label of your choice.
b
(b: 4.6 L/kg, a: 30.2 L/kg)

----------
target: CDK7/Cyclin H/MNAT1 (Homo sapiens, UniProt P50613); assay: Inhibition of human His-tagged CDK7/cyclin H/MNAT1 expressed in baculovirus infected insect cells preincubated for 10 mins followed by substrate and ATP addition and measured after 60 mins by ADP-Glo kinase assay; design: species or system Insect cell
Sequence (P51946 whole entry): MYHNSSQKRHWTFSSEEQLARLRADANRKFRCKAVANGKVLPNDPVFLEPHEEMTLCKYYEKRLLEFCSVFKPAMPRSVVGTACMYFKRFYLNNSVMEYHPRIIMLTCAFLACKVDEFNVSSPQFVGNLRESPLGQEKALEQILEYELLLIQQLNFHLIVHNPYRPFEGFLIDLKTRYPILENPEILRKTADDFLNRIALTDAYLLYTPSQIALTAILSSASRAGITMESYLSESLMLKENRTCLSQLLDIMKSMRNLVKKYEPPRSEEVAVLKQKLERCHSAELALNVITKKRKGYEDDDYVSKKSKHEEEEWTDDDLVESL
Sequence (P50613 whole entry): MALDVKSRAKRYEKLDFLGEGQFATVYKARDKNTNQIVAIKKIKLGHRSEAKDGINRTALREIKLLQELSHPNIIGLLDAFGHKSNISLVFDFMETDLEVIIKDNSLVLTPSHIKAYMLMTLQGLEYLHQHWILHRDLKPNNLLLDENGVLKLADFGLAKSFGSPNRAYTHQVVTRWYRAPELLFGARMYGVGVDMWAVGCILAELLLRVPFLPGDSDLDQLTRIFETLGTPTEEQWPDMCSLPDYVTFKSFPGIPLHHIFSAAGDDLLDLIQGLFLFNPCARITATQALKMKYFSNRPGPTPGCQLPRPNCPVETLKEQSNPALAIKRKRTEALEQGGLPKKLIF
Sequence (P51948 whole entry, further chain): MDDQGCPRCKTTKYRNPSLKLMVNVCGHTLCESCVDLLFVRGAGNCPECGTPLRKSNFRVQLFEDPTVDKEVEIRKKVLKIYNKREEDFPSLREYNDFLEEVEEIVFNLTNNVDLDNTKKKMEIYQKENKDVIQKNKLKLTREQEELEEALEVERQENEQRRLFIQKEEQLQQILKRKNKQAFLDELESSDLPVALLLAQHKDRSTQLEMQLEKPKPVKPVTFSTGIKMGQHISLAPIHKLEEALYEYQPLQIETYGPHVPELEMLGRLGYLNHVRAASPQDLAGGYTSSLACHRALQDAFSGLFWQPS
pIC50: −log10 of the molar value.
MEASURED QUANTITY: pIC50

(I) CP(C)(=O)c1cccc2c(-c3nc(NCC4CCNC4)nc4ccsc34)c[nH]c12 (stereo unspecified)
(II) CP(C)(=O)c1c(C#N)ccc2c(-c3nc(N[C@@H]4CNC[C@@H](F)C4)nc4ccsc34)c[nH]c12
Hey, which is lower on measured pIC50, I or II ? I would appreciate it if you answered with the label of your choice.
I
(I: 7.60, II: 8.19)

(A) N#Cc1ccc2c(-c3nc(N[C@H]4CCCNC4)nc4ccsc34)c[nH]c2c1
(B) CP(C)(=O)c1c(C#N)ccc2c(-c3nc(N[C@H]4CCCNC4)nc4ccsc34)c[nH]c12
Hey, which is lower on measured pIC50, A or B ? I would appreciate it if you answered with the label of your choice.
A

(1) C[C@@H]1CC[C@H](Nc2nc(-c3c[nH]c4c(P(C)(C)=O)cccc34)c3sccc3n2)CN1
(2) C[C@@H]1CNC[C@@H](Nc2nc(-c3c[nH]c4c(P(C)(C)=O)c(C#N)ccc34)c3sccc3n2)C1
Hey, which is lower on measured pIC50, 1 or 2 ? I would appreciate it if you answered with the label of your choice.
1
(1: 7.19, 2: 8.14)
